assayTarget: T1, dog CD47 (dog, UniProt A0A8I3PM61 19-310)
T1 construct: also called CD47 on dog RBCs
T1 sequence: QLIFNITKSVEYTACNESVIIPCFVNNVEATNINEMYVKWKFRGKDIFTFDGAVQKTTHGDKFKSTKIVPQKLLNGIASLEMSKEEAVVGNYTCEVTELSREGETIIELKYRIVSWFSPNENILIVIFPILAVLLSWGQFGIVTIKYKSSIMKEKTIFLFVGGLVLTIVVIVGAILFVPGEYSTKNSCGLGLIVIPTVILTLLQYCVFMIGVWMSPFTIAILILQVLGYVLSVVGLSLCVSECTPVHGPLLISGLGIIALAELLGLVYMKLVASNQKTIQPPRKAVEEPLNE
methodNotes: FACS, dog RBCs, supernatant 10 ng/ml
Known mean fluorescence relative to chimera of a selection of binders
When you answer, write just the number.

Reference set, count: 10
Clone 2 (pVxK7b-037-hum02-LC / pVxK7b-037-hum02-HC) (antibody, human IgG1, kappa, V domains shown) VH: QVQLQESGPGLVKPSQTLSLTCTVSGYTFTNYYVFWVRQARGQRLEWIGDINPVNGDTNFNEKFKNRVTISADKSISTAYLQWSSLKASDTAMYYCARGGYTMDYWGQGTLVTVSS VL: DVVMTQSPLSLPVTLGQPASISCRSSQSLVHSNGNTYLHWYQQKPGQAPRLLIYKVSYRFSGVPSRFSGSGSGTEFTLTISSLQPDDFATYYCSQNTHVPRTFGQGTKVEIKR	1
Clone 4 (pVxK7b-037-hum04-LC / pVxK7b-037-hum04-HC) (antibody, human IgG1, kappa, V domains shown) VH: QVQLQESGPGLVKPSQTLSLTCTVSGYTFTNYYVFWVRQAPGKGLEWVSDINPVNGDTNFNEKFKNRVTISVDTSKNQFSLKLSSVTAADTAVYYCARGGYTMDYWGQGTLVTVSS VL: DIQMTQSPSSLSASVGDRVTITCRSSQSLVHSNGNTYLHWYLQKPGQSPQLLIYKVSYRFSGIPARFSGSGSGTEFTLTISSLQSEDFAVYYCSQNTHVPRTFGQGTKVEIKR	0.6
Clone 6 (pVxK7b-037-hum06-LC / pVxK7b-037-hum06-HC) (antibody, human IgG1, kappa, V domains shown) VH: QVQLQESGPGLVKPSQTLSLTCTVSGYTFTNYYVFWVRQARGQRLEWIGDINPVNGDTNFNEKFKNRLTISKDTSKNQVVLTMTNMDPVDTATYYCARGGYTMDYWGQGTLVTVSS VL: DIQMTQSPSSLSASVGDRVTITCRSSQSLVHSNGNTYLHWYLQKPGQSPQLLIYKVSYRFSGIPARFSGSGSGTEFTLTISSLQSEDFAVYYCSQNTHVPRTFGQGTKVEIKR	1.1
Clone 10 (pVxK7b-037-hum10-LC / pVxK7b-037-hum10-HC) (antibody, human IgG1, kappa, V domains shown) VH: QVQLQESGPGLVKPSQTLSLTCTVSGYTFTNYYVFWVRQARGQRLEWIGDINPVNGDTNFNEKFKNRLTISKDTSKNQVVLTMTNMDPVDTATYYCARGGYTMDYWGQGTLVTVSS VL: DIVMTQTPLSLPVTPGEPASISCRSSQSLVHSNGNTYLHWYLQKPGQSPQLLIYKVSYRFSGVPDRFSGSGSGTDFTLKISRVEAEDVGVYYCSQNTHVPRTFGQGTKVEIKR	1.1
Clone 24 (pVxK7b-037-hum24-LC / pVxK7b-037-hum24-HC) (antibody, human IgG1, kappa, V domains shown, also called Cl 24) VH: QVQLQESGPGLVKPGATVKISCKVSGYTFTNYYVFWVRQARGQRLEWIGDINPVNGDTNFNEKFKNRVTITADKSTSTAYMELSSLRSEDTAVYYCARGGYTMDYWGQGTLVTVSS VL: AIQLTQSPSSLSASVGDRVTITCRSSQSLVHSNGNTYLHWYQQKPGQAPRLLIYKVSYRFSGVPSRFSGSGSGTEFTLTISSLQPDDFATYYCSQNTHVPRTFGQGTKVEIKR	1
chimeric antibody VxP037-01LC-Pro/VxP037-01HC-Pro (antibody, human IgG1, kappa, V domains shown, also called Chimera; VxP037-01LC/VxP037-01HC) VH: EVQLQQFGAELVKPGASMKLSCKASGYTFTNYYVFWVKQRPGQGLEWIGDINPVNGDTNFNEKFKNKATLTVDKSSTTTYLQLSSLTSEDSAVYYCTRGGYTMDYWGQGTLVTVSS VL: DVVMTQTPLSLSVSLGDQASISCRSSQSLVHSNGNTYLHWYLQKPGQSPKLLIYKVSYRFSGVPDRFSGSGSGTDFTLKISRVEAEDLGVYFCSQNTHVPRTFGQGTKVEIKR	1
Clone 7 (pVxK7b-037-hum07-LC / pVxK7b-037-hum07-HC) (antibody, human IgG1, kappa, V domains shown) VH: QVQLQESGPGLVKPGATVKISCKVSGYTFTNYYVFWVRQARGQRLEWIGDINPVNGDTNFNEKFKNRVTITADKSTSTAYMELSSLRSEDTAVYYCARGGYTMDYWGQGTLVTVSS VL: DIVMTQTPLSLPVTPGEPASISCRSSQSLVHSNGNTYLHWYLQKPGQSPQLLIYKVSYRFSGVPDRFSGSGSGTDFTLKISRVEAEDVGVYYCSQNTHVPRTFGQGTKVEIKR	0.8
Clone 12 (pVxK7b-037-hum12-LC / pVxK7b-037-hum12-HC) (antibody, human IgG1, kappa, V domains shown) VH: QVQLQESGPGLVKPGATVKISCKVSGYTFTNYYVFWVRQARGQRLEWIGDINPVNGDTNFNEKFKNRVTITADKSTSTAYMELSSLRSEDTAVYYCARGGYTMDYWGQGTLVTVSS VL: DIVMTQTPLSLPVTPGEPASISCRSSQSLVHSNGNTYLHWYQQKPGKAPKLLIYKVSYRFSGVPDRFSGSGSGTDFTLKISRVEAEDVGVYYCSQNTHVPRTFGQGTKVEIKR	0.9
Clone 15 (pVxK7b-037-hum15-LC / pVxK7b-037-hum15-HC) (antibody, human IgG1, kappa, V domains shown) VH: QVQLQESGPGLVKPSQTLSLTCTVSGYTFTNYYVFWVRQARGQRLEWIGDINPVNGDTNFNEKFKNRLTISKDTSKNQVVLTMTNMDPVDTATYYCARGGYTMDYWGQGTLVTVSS VL: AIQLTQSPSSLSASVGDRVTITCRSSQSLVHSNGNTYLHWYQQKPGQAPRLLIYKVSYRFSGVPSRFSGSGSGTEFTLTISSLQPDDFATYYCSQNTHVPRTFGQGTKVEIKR	1.1
Clone 11 (pVxK7b-037-hum11-LC / pVxK7b-037-hum11-HC) (antibody, human IgG1, kappa, V domains shown, also called Cl 11) VH: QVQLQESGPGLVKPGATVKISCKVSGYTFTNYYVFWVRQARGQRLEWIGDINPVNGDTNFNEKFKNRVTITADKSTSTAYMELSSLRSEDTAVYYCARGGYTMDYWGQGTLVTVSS VL: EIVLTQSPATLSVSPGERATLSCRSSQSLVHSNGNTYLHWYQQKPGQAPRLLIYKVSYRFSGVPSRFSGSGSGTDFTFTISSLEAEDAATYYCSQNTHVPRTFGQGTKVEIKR	0.8

Look up mean fluorescence relative to chimera: Clone 22 (pVxK7b-037-hum22-LC / pVxK7b-037-hum22-HC) (antibody, human IgG1, kappa, V domains shown) VH: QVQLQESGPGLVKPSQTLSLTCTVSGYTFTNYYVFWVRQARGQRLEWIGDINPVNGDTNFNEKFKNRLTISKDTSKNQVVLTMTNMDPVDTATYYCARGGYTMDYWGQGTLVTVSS VL: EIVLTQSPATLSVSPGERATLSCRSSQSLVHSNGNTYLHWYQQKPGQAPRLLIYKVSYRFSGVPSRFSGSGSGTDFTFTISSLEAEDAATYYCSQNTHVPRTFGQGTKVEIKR
1
